Assay: Cytotoxicity in mock-infected HI-HeLa cells (antirhinoviral assay, XTT)
Format: cell-based
Conditions: human; mock-infected HI-HeLa cells; two days; XTT; read-out: CC50
endpoint.label: CC50 at 2 days

CCOC(=O)/C=C/C(CCC(N)=O)NC(=O)C(Cc1ccc(Cl)cc1)NC(=O)c1cc2c(OC)cccc2n1C(c1ccccc1)(c1ccccc1)c1ccccc1 (centres unmarked) ... 500 µM
CCOC(=O)/C=C/[C@H](CCC(N)=O)NC(=O)[C@H](Cc1ccccc1)NC(=O)[C@H](CSc1ccccc1)NC(=O)OCc1ccccc1 ... > 320 µM

Field CC50 at 2 days (entry CCOC(=O)/C=C/[C@H](CCC(N)=O)NC(=O)[C@H](Cc1cnc[nH]1)NC(=O)[C@H](CC(C)C)NC(=O)OCc1ccccc1 ) reads > 320 µM

Record summary for CCOC(=O)/C=C/[C@H](CCC(N)=O)NC(=O)[C@H](Cc1ccc(C)cc1)NC(=O)[C@@H](NC(=O)SC1CCCC1)C(C)C : reported CC50 at 2 days = > 100 µM

molecule CCOC(=O)/C=C/[C@H](CCC(N)=O)NC(=O)[C@H](Cc1ccccc1)NC(=O)[C@H](CC(C)C)NC(=O)SCc1ccccc1 , CC50 at 2 days observed: > 320 µM
